Molecular target: ACC2 (Homo sapiens)
Sequence (O00763 whole entry, species assumed): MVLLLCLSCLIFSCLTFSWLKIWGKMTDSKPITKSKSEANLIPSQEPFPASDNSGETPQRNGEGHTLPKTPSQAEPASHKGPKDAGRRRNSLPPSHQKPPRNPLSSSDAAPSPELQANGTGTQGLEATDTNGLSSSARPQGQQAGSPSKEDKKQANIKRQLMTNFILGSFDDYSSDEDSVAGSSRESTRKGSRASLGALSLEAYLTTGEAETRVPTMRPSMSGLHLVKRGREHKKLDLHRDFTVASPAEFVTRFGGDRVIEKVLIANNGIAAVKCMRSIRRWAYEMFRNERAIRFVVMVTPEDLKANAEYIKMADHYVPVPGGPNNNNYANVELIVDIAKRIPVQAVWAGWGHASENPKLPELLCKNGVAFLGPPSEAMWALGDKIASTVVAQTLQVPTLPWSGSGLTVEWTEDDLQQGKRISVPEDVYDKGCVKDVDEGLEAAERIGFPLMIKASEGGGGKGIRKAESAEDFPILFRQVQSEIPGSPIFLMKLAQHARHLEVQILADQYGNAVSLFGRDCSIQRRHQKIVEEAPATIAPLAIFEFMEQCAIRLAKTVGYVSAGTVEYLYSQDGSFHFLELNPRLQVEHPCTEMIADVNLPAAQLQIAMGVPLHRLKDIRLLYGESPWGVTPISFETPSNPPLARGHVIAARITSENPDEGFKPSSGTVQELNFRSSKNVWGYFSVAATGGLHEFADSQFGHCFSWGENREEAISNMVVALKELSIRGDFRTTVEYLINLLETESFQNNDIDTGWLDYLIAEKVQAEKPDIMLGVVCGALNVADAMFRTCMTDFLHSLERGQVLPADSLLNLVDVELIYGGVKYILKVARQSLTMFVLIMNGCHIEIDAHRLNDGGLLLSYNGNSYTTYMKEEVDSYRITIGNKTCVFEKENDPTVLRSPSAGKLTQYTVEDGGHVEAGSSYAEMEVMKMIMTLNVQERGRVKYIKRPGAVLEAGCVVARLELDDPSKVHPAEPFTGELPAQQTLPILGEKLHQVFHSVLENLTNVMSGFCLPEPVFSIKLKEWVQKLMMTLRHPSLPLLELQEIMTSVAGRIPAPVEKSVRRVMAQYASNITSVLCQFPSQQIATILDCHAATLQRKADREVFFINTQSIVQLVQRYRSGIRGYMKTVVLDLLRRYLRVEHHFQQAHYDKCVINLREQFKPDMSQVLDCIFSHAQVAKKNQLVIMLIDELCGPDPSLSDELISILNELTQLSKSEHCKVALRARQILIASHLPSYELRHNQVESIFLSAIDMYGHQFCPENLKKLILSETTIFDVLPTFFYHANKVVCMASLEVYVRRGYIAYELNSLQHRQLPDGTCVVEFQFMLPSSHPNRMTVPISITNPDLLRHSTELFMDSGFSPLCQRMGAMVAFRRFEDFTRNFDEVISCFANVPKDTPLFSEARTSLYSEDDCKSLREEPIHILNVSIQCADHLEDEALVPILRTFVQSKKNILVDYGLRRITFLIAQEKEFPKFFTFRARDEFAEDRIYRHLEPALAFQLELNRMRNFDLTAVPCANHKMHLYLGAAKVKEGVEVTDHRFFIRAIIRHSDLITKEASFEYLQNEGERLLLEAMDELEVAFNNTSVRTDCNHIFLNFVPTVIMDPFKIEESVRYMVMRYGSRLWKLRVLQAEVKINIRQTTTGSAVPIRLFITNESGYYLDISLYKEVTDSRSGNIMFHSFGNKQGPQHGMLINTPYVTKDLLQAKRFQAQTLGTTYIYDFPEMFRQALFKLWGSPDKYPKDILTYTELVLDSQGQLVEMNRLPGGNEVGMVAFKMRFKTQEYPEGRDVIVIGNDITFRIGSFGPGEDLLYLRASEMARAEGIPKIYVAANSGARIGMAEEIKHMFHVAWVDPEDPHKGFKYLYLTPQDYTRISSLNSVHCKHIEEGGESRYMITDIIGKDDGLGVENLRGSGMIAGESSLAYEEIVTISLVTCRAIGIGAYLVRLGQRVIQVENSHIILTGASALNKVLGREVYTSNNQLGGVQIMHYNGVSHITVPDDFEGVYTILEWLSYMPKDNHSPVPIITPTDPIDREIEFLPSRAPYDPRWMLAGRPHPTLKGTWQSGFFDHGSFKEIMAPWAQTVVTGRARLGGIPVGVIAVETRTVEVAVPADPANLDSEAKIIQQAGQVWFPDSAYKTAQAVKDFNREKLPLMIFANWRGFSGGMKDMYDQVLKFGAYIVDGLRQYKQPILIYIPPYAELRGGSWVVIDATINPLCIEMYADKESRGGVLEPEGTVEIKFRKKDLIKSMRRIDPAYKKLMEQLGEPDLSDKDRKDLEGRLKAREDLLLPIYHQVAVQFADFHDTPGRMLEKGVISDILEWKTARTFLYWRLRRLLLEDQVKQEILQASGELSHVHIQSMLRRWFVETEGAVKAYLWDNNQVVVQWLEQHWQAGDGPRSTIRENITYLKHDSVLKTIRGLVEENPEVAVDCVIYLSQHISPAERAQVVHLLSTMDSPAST
Test: In vitro ACC2 inhibition assay (ADP-Glo)
Type: biochemical
Conditions: read-out: ACC2
Text: An exemplary procedure for the in vitro ACC inhibition assay, which can be used to determine the inhibitory action of compounds of the invention toward either ACC1 or ACC2, follows. The ADP-Glo™ Kinase Assay kit from Promega was used. The ADP-Glo™ Kinase Assay is a luminescent ADP detection assay to measure enzymatic activity by quantifying the amount of ADP produced during an enzyme reaction. […] Luminescence can be correlated to ADP concentrations by using an ATP-to-ADP conversion curve. […]
pIC50: −log10 of the molar value.
Provide the recorded pIC50 for the entries that follow.

// lookup pIC50 for CCOC(=O)c1sc2c(c1C)c(=O)n(C(C)(C)C(=O)O)c(=O)n2CCc1ccccc1 [I-70]
> 6.00

And Cc1c(-c2ncco2)sc2c1c(=O)n(C(C)(C)C(=O)O)c(=O)n2C[C@H](O[C@H](C)CO)c1ccccc1 [I-184] ?
> 6.00

Proceed to CCc1ccccc1[C@@H](Cn1c(=O)n(C(C)(C)C(=O)O)c(=O)c2c(C)c(-c3ncco3)sc21)OCCO [I-263]
> 6.00

And for Cc1c(-c2ncco2)sc2c1c(=O)n(C(C)(C)C(=O)O)c(=O)n2C[C@@H](Oc1ccccc1)c1ccccc1 [I-144] ?
4.70 to 5.30

Another molecule to check: COc1ccccc1[C@H](Cn1c(=O)n(C(C)(C)C(=O)N2CC(O)C2)c(=O)c2c(C)c(-c3ncco3)sc21)OC(C)C [I-241]
> 7.00

// same read-out, input: CCOC(=O)c1sc2c(c1C)c(=O)n(CC(=O)O)c(=O)n2Cc1ccc2c(c1)OCO2 [I-50]
< 4.30

Also Cc1c(-c2ncco2)sc2c1c(=O)n(C(C)(C)C(=O)O)c(=O)n2C[C@H](O[C@H]1CC[C@](C)(O)CC1)c1ccccc1 [I-163] , if possible.
> 6.00

Param item: Cc1c(-c2ncco2)sc2c1c(=O)n(C(C)(C)C(=O)O)c(=O)n2C[C@H](OC1CCOCC1)c1ccccc1OC(C)C [I-291]
> 7.00

Please answer likewise for CCOC(=O)c1sc2c(c1C)c(=O)n(C(C)(C)C(=O)O)c(=O)n2C[C@@H](OC)c1ccccc1 [I-111]
4.70 to 5.30

----------
Would you kindly list pIC50 for each of these compounds?
Biological target: ACC1 (Homo sapiens, UniProt Q13085)
Experiment: In vitro ACC1 inhibition assay (ADP-Glo)
Format: biochemical
Details: read-out: ACC1
Excerpt: An exemplary procedure for the in vitro ACC inhibition assay, which can be used to determine the inhibitory action of compounds of the invention toward either ACC1 or ACC2, follows. The ADP-Glo™ Kinase Assay kit from Promega was used. The ADP-Glo™ Kinase Assay is a luminescent ADP detection assay to measure enzymatic activity by quantifying the amount of ADP produced during an enzyme reaction. […] Luminescence can be correlated to ADP concentrations by using an ATP-to-ADP conversion curve. […]
pIC50: −log10 of the molar value.

Requested field: pIC50. Item: COc1ccccc1[C@H](Cn1c(=O)n(C(C)(C)C(=O)O)c(=O)c2c(C)c(-c3ncco3)sc21)OCC1COC1
> 5.30

Now the same for COc1ccccc1[C@H](Cn1c(=O)n(C(C)(C)C(=O)NC(C)C)c(=O)c2c(C)c(-c3ncco3)sc21)OC(C)C
> 7.00

Entry CCc1ccccc1CCn1c(=O)n(C(C)(C)C(=O)O)c(=O)c2c(C)c(-c3ncco3)sc21 please
> 7.00

----------
Kindly supply the reported IC50 values for the records listed here.
Target: UniProt:O00763
Experiment: In vitro ACC2 inhibition assay (ADP-Glo)
Assay type: biochemical
Conditions: read-out: ACC2

Param item = CCOC(=O)c1sc2c(c1C)c(=O)n(CCO)c(=O)n2CCc1c(F)cccc1F ; retrieve measured IC50.
> 50 µM

Input CCOC(=O)c1sc2c(c1C(F)(F)F)c(=O)n(CC(=O)O)c(=O)n2CCc1ccccc1
< 5 µM

Would you mind doing CCOC(=O)c1sc2c(c1C)c(=O)n(C(C)(C)C(N)=O)c(=O)n2CCc1ccccc1 as well?
< 5 µM

Likewise for COc1ccccc1[C@H](Cn1c(=O)n(C(C)(C)C(=O)O)c(=O)c2c(C)c(-c3ncco3)sc21)OCCO ?
< 0.1 µM

Now this one: Cc1c(-c2ncco2)sc2c1c(=O)n(C(C)(C)C(=O)O)c(=O)n2C[C@H](OC[C@H](C)CO)c1ccccc1
< 1 µM

Check COc1ccccc1[C@H](Cn1c(=O)n(C(C)(C)C(=O)O)c(=O)c2c(C)c(-c3ncco3)sc21)OCC1CCOCC1 too.
< 0.1 µM

For COc1ccccc1[C@H](Cn1c(=O)n(C(C)(C)C(=O)O)c(=O)c2c(C)c(-c3ncco3)sc21)O[C@H]1CC[C@@H](O)CC1 then?
< 0.1 µM

Another compound to look at: Cc1c(-c2ncco2)sc2c1c(=O)n(C(C)(C)C(=O)O)c(=O)n2C[C@H](O[C@H]1CC[C@@H](O)CC1)c1ccccc1OC(C)C
< 0.1 µM

Moving on to CCNC(=O)c1sc2c(c1C)c(=O)n(CCO)c(=O)n2CCc1ccccc1
> 50 µM
